Source of measurements: ChEMBL document CHEMBL1128045

# test.protocol: In vivo anti-Candida activity was determined in a mouse model of disseminated candidiasis (TOKA).
# Assay type: functional
Numbered stars: 1 amine (or outer) side, 2 acyl side, 3 side chain; on linkers, the order of the positions; unused ones are H or OH. Bridge positions count the residues as written; N and C are the ends. Square brackets hold non-standard residues; d marks the D form. Peptide text beside a SMILES is read from it. * marks the point of attachment. Orn(4R-OH,5R-OH) = O=C([C@H](C[C@@H](O)[C@@H](O)N[*:3])N[*:1])[*:2]; hTyr(3S-OH,4S-OH) = N[C@H](C(=O)O)[C@H](O)[C@@H](O)c1ccc(O)cc1; Orn(4R-OH) = O=C([C@H](C[C@@H](O)CN[*:3])N[*:1])[*:2]; hTyr(3R-OH) = N[C@H](C(=O)O)[C@H](O)Cc1ccc(O)cc1; X5 = NC(N)=NCC[C@@H](O)[C@H](N[*:1])C(=O)[*:2]; X3 = O=C(C[C@@H](O)[C@H](N[*:1])C(=O)[*:2])NO; X13 = CNCC[C@@H](O)[C@H](N[*:1])C(=O)[*:2]; Pro(3S-OH) = O=C(O)[C@H]1NCC[C@@H]1O; Hyp = O=C(O)[C@@H]1C[C@@H](O)CN1; X1 = CCC(C)CC(C)CCCCCCCCC(=O)*
As shown below, each of these compounds has a reported ED99.9 value.
API: value field is a number in mg/kg; no unit string.

Record excerpt, results attached:
CCC(C)CC(C)CCCCCCCCC(=O)N[C@H]1C[C@@H](O)CNC(=O)[C@@H]2[C@@H](O)CCN2C(=O)[C@H]([C@H](O)CC(=O)NO)NC(=O)[C@H]([C@H](O)Cc2ccc(O)cc2)NC(=O)[C@@H]2C[C@@H](O)CN2C(=O)[C@H]([C@@H](C)O)NC1=O (stereo partly drawn) (X1-[Orn(4R-OH)]T[Hyp][hTyr(3R-OH)][X3][Pro(3S-OH)]; lactam 1-C) : 6
CCC(C)CC(C)CCCCCCCCC(=O)N[C@H]1C[C@@H](O)[C@@H](O)NC(=O)[C@@H]2[C@@H](O)CCN2C(=O)[C@H]([C@H](O)CCN=C(N)N)NC(=O)[C@H]([C@H](O)[C@@H](O)c2ccc(O)cc2)NC(=O)[C@@H]2C[C@@H](O)CN2C(=O)[C@H]([C@@H](C)O)NC1=O (stereo partly drawn) (X1-[Orn(4R-OH,5R-OH)]T[Hyp][hTyr(3S-OH,4S-OH)][X5][Pro(3S-OH)]; lactam 1-C) : 1.5

Next compound, ED99.9 to be filled in.
QUERY: Field request: ED99.9 | item: CCC(C)CC(C)CCCCCCCCC(=O)N[C@H]1C[C@@H](O)[C@@H](O)NC(=O)[C@@H]2[C@@H](O)CCN2C(=O)[C@H]([C@H](O)CCNC)NC(=O)[C@H]([C@H](O)[C@@H](O)c2ccc(O)cc2)NC(=O)[C@@H]2C[C@@H](O)CN2C(=O)[C@H]([C@@H](C)O)NC1=O (stereo partly drawn) (X1-[Orn(4R-OH,5R-OH)]T[Hyp][hTyr(3S-OH,4S-OH)][X13][Pro(3S-OH)]; lactam 1-C)
RESULT: 0.375
